This listing pairs binders with measured optical density.
- system tested: T1, Goat anti-Human Kappa
- T1 construct: Positive control of the ELISA; also called biotinylated goat anti-human kappa light chain
- protocol summary: ELISA, positive control; note: test concentration or dose not given here
Answer with a number only, understood to be in OD.

| binder | readout number |
| --- | --- |
| 371_B06 (antibody, V domains shown) VH: EVQLLESGGGLVQPGGSLRLSCAASGFTFDSYSMNWVRQAPGKGLEWVAGINYNGGYKSYADSVKGRFTISRDNSKNTLYLQMNSLRAEDTAVYYCARSANWHDTALDYWGQGTLVTVSS VL: DIQMTQSPSSLSASVGDRVTITCRASQSILTYVNWYQQKPGKAPKLVIYAATSRHSGVPSRFSGSGSGTDFTLTISSLQPEDFATYYCQQSYNLPLTFGGGTKVEIK | 3.3 |

Consider the additional binder presented here.
Documented optical density of 373_B12 (antibody, V domains shown) VH: EVQLLESGGGLVQPGGSLRLSCAASGFTFDSYGMNWVRQAPGKGLEWVSSINYNSGYTSYADSVKGRFTISRDNSKNTLYLQMNSLRAEDTAVYYCARSANWHDTALDYWGQGTLVTVSS VL: DIQMTQSPSSLSASVGDRVTITCRASQSIVSYVNWYQQKPGKAPKLLIYAATSRASGVPSRFSGSGSGTDFTLTISSLQPEDFATYYCQQSYDSPLTFGGGTKVEIK : 3.27
